- Assayed System: human CYP11B2 (Homo sapiens)
- Sequence (P19099 25-503): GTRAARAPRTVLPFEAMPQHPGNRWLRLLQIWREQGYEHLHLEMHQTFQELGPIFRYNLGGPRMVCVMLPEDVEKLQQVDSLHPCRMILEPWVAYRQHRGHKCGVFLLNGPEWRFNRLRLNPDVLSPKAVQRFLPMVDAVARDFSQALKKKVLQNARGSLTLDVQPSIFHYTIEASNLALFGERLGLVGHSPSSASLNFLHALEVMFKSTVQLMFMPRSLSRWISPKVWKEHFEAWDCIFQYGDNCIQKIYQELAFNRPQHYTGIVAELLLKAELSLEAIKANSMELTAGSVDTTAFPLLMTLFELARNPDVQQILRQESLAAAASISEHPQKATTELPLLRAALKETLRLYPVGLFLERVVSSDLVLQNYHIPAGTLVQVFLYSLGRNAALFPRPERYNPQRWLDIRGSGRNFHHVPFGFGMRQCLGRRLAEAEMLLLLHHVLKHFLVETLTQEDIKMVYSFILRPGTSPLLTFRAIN
- Procedure Text: Aldosterone production inhibition in V79-B2 cells expressing human CYP11B2 (ELISA)
- Test Context: V79-B2 cells, corticosterone 100 nmol/L, 4 hours, aldosterone by ELISA; mean or mean ± SD
With a cut-off of 7 nM, any IC50 strictly below it is called Satisfied; any IC50 meeting it or above is called Not satisfied.

Lab note: IC50 threshold 7 nM. Does this molecule come in strictly under it? `Cn1c(-c2cncc(Cn3ccnc3)c2)nc2ccc(I)cc21`
Satisfied

Answer whether the molecule `Ic1ccc2nc(-c3cncc(Cn4ccnn4)c3)n(C3CC3)c2c1` has IC50 strictly less than 7 nM
Not satisfied

meta.source: patent US10358434B2
